Could you please report measured growth inhibition for the items listed next?
run-description: NCI Yeast Anticancer Drug Screen. Data for the rad50 strain (AID 155);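 also: 0% = growth of vehicle-only cultures of the same strain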
cond: S. cerevisiae rad50 strain growth inhibition; at 50.0 µM; hits give high values
This is part of a sample that, as a whole, favours compounds with a hit. Of some 79,000 tested, about 15% had one in any assay.
Numbers only, in %.

- compound: "O=C1c2ccccc2C2(O)C3C=CCCN3CN12 (stereo unspecified)"
  growth inhibition (%): 2.65

Below is a list of compounds. For each, state its recorded growth inhibition.
1. CCOC12CC3C4=CCOC5CC(=O)N6c7ccccc7C1(CCN2C4)C6C53 (stereo unspecified)
2. COc1ccc2c(c1OC(C)=O)C1=CC(=O)CCC13CCNC3C2 (stereo unspecified)
3. O=NNc1cncc(Cl)n1
4. [C-]#[O+].[C-]#[O+].[C-]#[O+].[W].c1ccc([PH+](CC[PH+](c2ccccc2)c2ccccc2)CC[PH+](c2ccccc2)c2ccccc2)cc1

Output line:
15.8
15.8
-11.2
0.6

Below is a list of compounds. For each, state its recorded growth inhibition.
1. CC1C2C=CC1C(c1c3ccc(=O)cc-3oc3cc(O)ccc13)C2C(=O)O (stereo unspecified)
2. O=S(=O)(O)c1ccc(Cl)cc1
3. CC1=NCCc2c1[nH]c1cc(O)ccc21
4. CCOC(=O)C1C(C=C(C)C)C1(C)C (stereo unspecified)
5. CCOC(CCCN1CCC2(CC1)C(=O)N(C)CN2c1ccccc1)(OCC)c1ccc(F)cc1
6. O=C(/C=C/c1ccccc1)CCC1C(=O)NC(=S)NC1=O

Output line:
1. -4.85
2. -0.45
3. 6.65
4. -14.3
5. 8.45
6. -4.05

###

run-description: NCI Yeast Anticancer Drug Screen. Data for the bub3 strain (AID 167)
cond: S. cerevisiae bub3 mutant strain, at 50.0 µM, hits give high values
About 79,000 compounds went through this panel and 15% of them were active in at least one assay; those are over-represented in the sample as a whole.
measured-metric: growth inhibition (%)
Give bare numbers, in %.

Below is a list of compounds. For each, state its recorded growth inhibition.
1. CNC(=O)CCl
2. COc1ccc(C(=O)O)cc1[N+](=O)[O-] (tested in a mixture with another compound)
3. CCCCCC(=O)C[n+]1ccccc1 (tested in a mixture with another compound)
4. O=S(=O)(N=S(CCCl)CCCl)c1ccccc1
5. CCCCC(CC)CC1C(=O)NC(=S)NC1=O (stereo not given)
6. N.N.NC(CS)C(=O)[O-].NC(CS)C(=O)[O-].[Pt+4] (stereo not given)
7. CCC1([N+](=O)[O-])COP(=O)(NCc2ccncc2)OC1 (stereo not given)

Output line:
1. -0.75
2. 11.4
3. 24.4
4. 21.4
5. -0.05
6. -12.8
7. -5.6

###

run-description: NCI Yeast Anticancer Drug Screen. Data for the mlh1 rad18 strain (AID 175)
cond: S. cerevisiae mlh1 rad18 strain growth inhibition; at 50.0 µM; hits give high values
Protocol: Growth inhibition of yeast strains with defined genetic alterations is measured as a screen for potential anti-cancer activity. Selected strains with alterations in DNA damage repair or cell cycle control were exposed to compounds and growth inhibition was measured relative to vehicle treated controls. The strain used in this assay is mlh1 rad18
The panel holds about 79,000 compounds, 15% with a hit somewhere; the sample as a whole holds those more often. Activity calls are given as the source filed them. Rule as the data show it: active = growth inhibition above about 70%; inactive = the rest.
measured-metric: growth inhibition

Some entries whose results are on file:
- molecule: "S=C(N=Nc1ccccc1)NNc1ccccc1.[Zn+2]"
  measured-metric: "growth inhibition"
  reported-result: "12.3% (inactive)"
- molecule: "COC(=O)C1C(O)CC2CCC1[N+]2(C)C (configuration not stated)"
  measured-metric: "growth inhibition"
  reported-result: "-6.8% (inactive)"
- molecule: "CC1(C)OCC(CO)(Nc2nc(N3CC3)nc(N3CC3)n2)CO1"
  measured-metric: "growth inhibition"
  reported-result: "-2.8% (inactive)"
- molecule: "CC[N+](C)(C)c1ccc(C)c(OC(=O)NC)c1"
  measured-metric: "growth inhibition"
  reported-result: "-0.45% (inactive)"

Below is a list of molecules. For each, state its recorded growth inhibition.
1. CCCC(C)SP(=S)(SC(C)CCC)SC(C)CCC (configuration not stated)
2. CC1(C)COP(=S)(SCCC#N)OC1
3. ClCCN(CCCl)c1ccc(/C=N/N=C2c3ccccc3-c3ccccc32)cc1
4. CCCCOP(=O)(Nc1ccc(Cl)cc1)OCCCC
5. NC(N)=NC(N)=Nc1ccc(Cl)cc1
6. CCOP(=S)(OCC)S/C(C(=O)NC)=C(/C)O
7. CC(=O)[O-].CC(=O)[O-].O=C(N/N=C/c1cc(Cl)cc(Cl)c1O)c1ccncc1.[Cu+2]

Output line:
1. 19.6% (inactive)
2. -0.55% (inactive)
3. -4.5% (inactive)
4. 99.5% (active)
5. -1.55% (inactive)
6. 79.7% (active)
7. 9.85% (inactive)

Below is a list of molecules. For each, state its recorded growth inhibition.
1. Nc1ccc(Cl)cc1.Nc1ccc(Cl)cc1.Nc1ccc(Cl)cc1.O=C([O-])C(=O)[O-].O=C([O-])C(=O)[O-].[H+].[Ru+5]
2. O=S(=O)(c1ccccc1)N1CC1CI (configuration not stated)

Output line:
["34.5% (inactive)", "1.75% (inactive)"]

Below is a list of molecules. For each, state its recorded growth inhibition.
1. N#CNC(N)=S
2. O=C1OC(Br)c2ccccc21 (configuration not stated)
3. NC(=O)C1(Br)CCCCC1

Output line:
["-8.35% (inactive)", "-7.65% (inactive)", "-3.55% (inactive)"]
